Origin of the recorded values: patent US20120302748A1

# Assay name: in vitro
# Condition info: Chinese hamster, cytotoxicity IC50 in wild-type CHO cells
Endpoint: IC50

Need IC50 of COc1cc(OC)c2oc(COP(=O)(NCCBr)NCCBr)cc2c1 , thanks.
≥ 10 µM

Further cases:
Field request: IC50 | item: COc1cc(OC)c2oc(COP(=O)(NCCCl)NCCCl)cc2c1
≥ 10 µM

====

Consider the following molecules; for each one, report its inhibition at 0.5 mmol dm^−3.
# Test target: CYP1B1 (Homo sapiens, UniProt Q16678)
# Sequence (Q16678 1-543): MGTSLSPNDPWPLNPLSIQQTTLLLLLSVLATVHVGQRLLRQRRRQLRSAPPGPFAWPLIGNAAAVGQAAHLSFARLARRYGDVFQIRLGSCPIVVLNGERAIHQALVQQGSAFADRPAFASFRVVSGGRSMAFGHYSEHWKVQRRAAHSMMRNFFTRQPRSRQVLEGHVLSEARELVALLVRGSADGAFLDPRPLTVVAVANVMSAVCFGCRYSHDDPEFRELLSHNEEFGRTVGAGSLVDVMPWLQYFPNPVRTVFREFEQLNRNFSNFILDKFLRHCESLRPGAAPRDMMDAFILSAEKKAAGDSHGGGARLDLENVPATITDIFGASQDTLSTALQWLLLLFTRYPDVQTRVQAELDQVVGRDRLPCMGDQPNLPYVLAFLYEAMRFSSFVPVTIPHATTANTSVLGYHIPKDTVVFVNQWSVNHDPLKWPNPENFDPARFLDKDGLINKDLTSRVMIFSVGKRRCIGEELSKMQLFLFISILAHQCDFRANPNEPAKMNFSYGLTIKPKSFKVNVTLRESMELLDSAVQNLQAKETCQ
# Assay name: in vitro
Quick note: unit goes after the number.

// returns reported inhibition at 0.5 mmol dm^−3 for input Cc1cc(=O)oc2cc(OCc3cc4cc(F)cc(F)c4o3)ccc12 [VG016-05]
2.45%

Fill in: inhibition at 0.5 mmol dm^−3 of Oc1ccc(C=Cc2cc(O)cc(O)c2)cc1 [resveratrol] is ___
72.3%

Tell me the measured inhibition at 0.5 mmol dm^−3 of CCOc1ccc2nc3ccc(=O)cc-3oc2c1 [ethoxyresorufin, 7-ethoxyresorufin] , please.
92.1%

I would be grateful if you could share the reported inhibition at 0.5 mmol dm^−3 for COc1cc(OC)c2oc(COc3ccc4c(C)cc(=O)oc4c3)cc2c1 [VG035-05] .
97.3%

For the molecule C=C[C@H]1C[N@@]2CC[C@H]1C[C@@H]2[C@@H](O)c1ccnc2ccc(OC)cc12 [quinidine] , what inhibition at 0.5 mmol dm^−3 is on record?
1.63%

---
Can you share its inhibition at 0.5 mmol dm^−3? I mean this molecule: Nc1ccc(S(=O)(=O)Nc2ccnn2-c2ccccc2)cc1 [sulfaphenazole]
2.89%
